target_entity: Hck (UniProt P08631)
Sequence (P08631 whole entry, looked up): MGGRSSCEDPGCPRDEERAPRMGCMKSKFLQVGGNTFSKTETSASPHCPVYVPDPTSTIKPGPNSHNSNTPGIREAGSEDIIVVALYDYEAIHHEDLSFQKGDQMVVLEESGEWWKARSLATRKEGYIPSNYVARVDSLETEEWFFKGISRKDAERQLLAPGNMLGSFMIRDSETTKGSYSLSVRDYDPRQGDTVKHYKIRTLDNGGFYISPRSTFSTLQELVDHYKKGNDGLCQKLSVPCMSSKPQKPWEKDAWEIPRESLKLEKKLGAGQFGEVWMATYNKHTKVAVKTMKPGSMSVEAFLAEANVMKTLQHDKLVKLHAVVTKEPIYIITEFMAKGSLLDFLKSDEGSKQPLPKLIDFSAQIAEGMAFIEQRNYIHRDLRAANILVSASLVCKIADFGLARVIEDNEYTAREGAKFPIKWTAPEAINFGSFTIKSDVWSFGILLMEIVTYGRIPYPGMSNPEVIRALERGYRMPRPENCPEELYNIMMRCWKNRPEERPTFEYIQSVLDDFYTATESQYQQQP
experiment: phosphorylation enrichment, bacterial display (enrichment ratio); higher = better substrate or ligand; peptides without Tyr show the background;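 also: 11-residue human phosphosite peptides and single-mutation variants displayed on the E. coli surface, counted by deep sequencing, each peptide's frequency after selection divided by its frequency in the unselected input library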;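 also: frequency after pTyr selection over input frequency; kinase dosed for 20-30% of maximal phosphorylation in three min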
assay_metric: phosphorylation enrichment
Give a plain numeric answer without units written out.

Answered cases to consult:
[
  {
    "monomer_sequence": "RHAASYSSDSE [REPS1_Y116]",
    "phosphorylation enrichment": 0.41
  },
  {
    "monomer_sequence": "EARRVYGDIIY [ALDH5A1_Y175_H180Y]",
    "phosphorylation enrichment": 1.27
  },
  {
    "monomer_sequence": "VFLARYGPAWR [CYP2D6_Y124]",
    "phosphorylation enrichment": 0.548
  },
  {
    "monomer_sequence": "PFTRNYFVWAV [CYBA_Y87_R90W_YF]",
    "phosphorylation enrichment": 1.92
  },
  {
    "monomer_sequence": "FLAVGYHKLHI [IDS_Y225_P228L]",
    "phosphorylation enrichment": 0.427
  },
  {
    "monomer_sequence": "WTAHSYRMGST [ARHGEF7_Y785]",
    "phosphorylation enrichment": 0.432
  }
]

Exercise: Form field: reported phosphorylation enrichment of AEMKRYAESSS [RAI14_Y869]
Key: 0.403
